Hello, the source for this data is patent US20260242478A1, in case you need it.

molecular target: T1, Anti-CD28 Fab (SEQ ID NOs: 696, 697); test: phage ELISA; biotinylated anti-CD28 Fab on neutravidin plate, clonal phage supernatant, anti-M13 HRP detection;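 further: crude supernatants of single phage clones picked after panning were screened for binding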
T1 construct: In the phage ELISA the Fab was biotinylated and captured on neutravidin coated plates
T1 sequence (VH, as listed by the source, chain 1 of 2): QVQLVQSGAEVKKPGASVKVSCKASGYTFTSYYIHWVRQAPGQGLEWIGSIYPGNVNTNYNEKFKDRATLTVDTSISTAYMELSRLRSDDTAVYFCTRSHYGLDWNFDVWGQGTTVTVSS
T1 sequence (VL, as listed by the source, chain 2 of 2): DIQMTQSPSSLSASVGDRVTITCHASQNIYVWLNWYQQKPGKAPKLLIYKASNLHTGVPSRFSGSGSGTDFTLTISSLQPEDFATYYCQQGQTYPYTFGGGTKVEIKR
Provide the recorded Phage binding ELISA, Anti-CD28 Fab signal for the entries that follow.
Answers are plain numbers.

Example entries and their recorded answers appear below.
YCDGHAPDYMLKCL (Tested as clonal phage supernatant) [Phage-602] | 2.2
YCDGHKAEYMDKCL (Tested as clonal phage supernatant) [Phage-600] | 2.2
YCEGHAAEYMTKCL (Tested as clonal phage supernatant) [Phage-594] | 2.22
YCEGHLPQYMKKCL (Tested as clonal phage supernatant) [Phage-595] | 2.22
YCEGHTVEYMAKCL (Tested as clonal phage supernatant) [Phage-599] | 2.2

For each entry beneath this line, provide reported Phage binding ELISA, Anti-CD28 Fab signal.
1. YCEGHSPQYMWKCL (Tested as clonal phage supernatant) [Phage-593]
2. YCDGHAPEYMLKCL (Tested as clonal phage supernatant) [Phage-601]

2.22
2.2
